Taken from patent US20160297884A1.

SYSTEM_NAME: T1, Human BCMA (human, UniProt Q02223 1-54, limits assumed)
T1 construct: Soluble analyte in SPR; construct not described; also called huBCMA; B-cell maturation antigen
T1 sequence (looked up): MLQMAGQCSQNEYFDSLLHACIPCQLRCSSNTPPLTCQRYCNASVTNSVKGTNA
MEASUREMENT_NOTES: SPR, IgG immobilised, 37 C
MEASURE: kon (M⁻¹ s⁻¹)

[
  {
    "BINDER": "L3.PY/L1.PS/P6E01 (antibody, V domains shown, IgG) VH: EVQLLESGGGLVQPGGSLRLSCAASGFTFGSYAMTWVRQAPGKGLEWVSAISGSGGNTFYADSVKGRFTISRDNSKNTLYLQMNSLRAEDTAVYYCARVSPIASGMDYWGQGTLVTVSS VL: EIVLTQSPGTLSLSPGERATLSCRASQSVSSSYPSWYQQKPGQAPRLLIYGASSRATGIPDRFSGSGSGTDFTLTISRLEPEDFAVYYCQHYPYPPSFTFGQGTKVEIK",
    "UNITS": "M⁻¹ s⁻¹",
    "VAL": "2.49e+06"
  },
  {
    "BINDER": "L3.PY/L3.KY/H3.YA (antibody, V domains shown, IgG) VH: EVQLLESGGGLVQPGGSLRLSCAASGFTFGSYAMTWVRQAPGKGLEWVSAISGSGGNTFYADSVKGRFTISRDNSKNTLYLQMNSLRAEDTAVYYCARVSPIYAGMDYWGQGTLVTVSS VL: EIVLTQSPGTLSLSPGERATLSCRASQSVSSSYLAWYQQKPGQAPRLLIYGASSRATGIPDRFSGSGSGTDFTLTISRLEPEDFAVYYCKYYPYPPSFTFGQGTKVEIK",
    "UNITS": "M⁻¹ s⁻¹",
    "VAL": "3.3e+06"
  },
  {
    "BINDER": "L3.PY/L1.PS/H2.QL (antibody, V domains shown, IgG) VH: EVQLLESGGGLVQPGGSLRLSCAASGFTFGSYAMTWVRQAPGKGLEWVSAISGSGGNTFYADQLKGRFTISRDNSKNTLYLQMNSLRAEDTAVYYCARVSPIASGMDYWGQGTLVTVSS VL: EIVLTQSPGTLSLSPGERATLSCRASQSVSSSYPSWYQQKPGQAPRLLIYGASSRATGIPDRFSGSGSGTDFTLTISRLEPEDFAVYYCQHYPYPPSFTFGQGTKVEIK",
    "UNITS": "M⁻¹ s⁻¹",
    "VAL": "1.52e+07"
  }
]
